# assay.details: galactose survival enhancers in mitochondrial complex I cybrids – cell-based, galactose medium, ATP luminescence, primary screen (AID 1645843);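 note: positive z means more ATP and so rescue of galactose-driven cybrid death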
# test.conditions: complex I mutant cybrid cells, 72 h, active compounds read high
A collection of compounds and their measured z-score
// keep it numeric: no unit symbol after the value

Note down z-score recorded for CC(=O)Nc1ccc(OCC(O)CNC(C)C)cc1 (stereo unspecified)
0.68

Answer with the recorded z-score of Cc1onc(-c2ccccc2)c1C(=O)N[C@@H]1C(=O)N2[C@@H]1SC(C)(C)[C@@H]2C(=O)O only.
0.945

Hello, please tell me recorded z-score for this one: O=C(O)CN1C(=O)c2cccc3cccc(c23)C1=O
0.415

Note z-score for the compound shown: CN1CCC(=C2c3ccccc3CCc3sccc32)CC1
-0.795

For the compound CCCN[C@H]1CCc2nc(N)sc2C1 , give its measured z-score value.
0.97

Read the entry COCc1c(C(C)C)nc(C(C)C)c(/C=C/[C@@H](O)C[C@@H](O)CC(=O)O)c1-c1ccc(F)cc1 and write its reported z-score.
-2.23

Read the entry O=NN(CCCl)C(=O)NC1CCCCC1 and write its reported z-score.
-0.495

Give the reported z-score for this compound. Cc1cc(N)c2ccccc2[n+]1CCCCCCCCCC[n+]1c(C)cc(N)c2ccccc21
-1.04
